- Tested on: 282377-053-R-J1-PDC complex spheroid viability
- protocol: Anticancer human tumor 282377-053-R-J1-PDC patient-derived colon adenocarcinoma cell line growth inhibition [POLQ]
- condition_info: curve of first compound; second compound 0.0316 µM

{"compound": "COc1cc(C2c3cc4c(cc3C(OC3OC5COC(C)OC5C(O)C3O)C3COC(=O)C23)OCO4)cc(OC)c1O (stereo not given) + COC1C(OC(N)=O)C(O)C(Oc2ccc3c(O)c(NC(=O)c4ccc(O)c(CC=C(C)C)c4)c(=O)oc3c2C)OC1(C)C", "IC50": "> 10 µM"}
{"compound": "COc1ccc([C@@H](O)c2cc(-c3ncnc4cc(N5CCOCC5)ccc34)c(F)cc2Cl)nn1 + Nc1ccc(C#CCN(C(=O)Cc2ncc(C(F)(F)F)cc2C(F)(F)F)c2ccc(F)cc2)nn1", "IC50": "> 10 µM"}
{"compound": "Cn1ncnc1[C@H]1c2n[nH]c(=O)c3cc(F)cc(c23)N[C@@H]1c1ccc(F)cc1 + COC1C(OC(N)=O)C(O)C(Oc2ccc3c(O)c(NC(=O)c4ccc(O)c(CC=C(C)C)c4)c(=O)oc3c2C)OC1(C)C", "IC50": "> 0.1 µM"}
{"compound": "Cn1ncnc1[C@H]1c2n[nH]c(=O)c3cc(F)cc(c23)N[C@@H]1c1ccc(F)cc1 + Nc1ccc(C#CCN(C(=O)Cc2ncc(C(F)(F)F)cc2C(F)(F)F)c2ccc(F)cc2)nn1", "IC50": "> 0.1 µM"}
{"compound": "C=CCn1c(=O)c2cnc(Nc3ccc(N4CCN(C)CC4)cc3)nc2n1-c1cccc(C(C)(C)O)n1 + Nc1ccc(C#CCN(C(=O)Cc2ncc(C(F)(F)F)cc2C(F)(F)F)c2ccc(F)cc2)nn1", "IC50": "> 1 µM"}

---

- Test system: 282377-053-R-J1-PDC complex spheroid viability
- protocol: Anticancer human tumor 282377-053-R-J1-PDC cell line growth inhibition [POLQ]; active means viability on the fitted dose curve at most 10% of control; inactive means the rest;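 also: spheroids exposed to compounds for seven days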
- condition_info: second compound 0.1 µM; first compound 3.16 µM
Possible outcomes: active, inactive

{"compound": "COc1cccc2c1C(=O)c1c(O)c3c(c(O)c1C2=O)CC(O)(C(=O)CO)CC3OC1CC(N)C(O)C(C)O1 (stereo not drawn) + COC1C(OC(N)=O)C(O)C(Oc2ccc3c(O)c(NC(=O)c4ccc(O)c(CC=C(C)C)c4)c(=O)oc3c2C)OC1(C)C", "assigned_label": "active"}
{"compound": "CNCc1ccc(-c2[nH]c3cc(F)cc4c3c2CCNC4=O)cc1 + Cc1cccc(N(C)C(=O)C2C(O)CCN2c2nc(C)cc(C(F)(F)F)c2C#N)c1", "assigned_label": "inactive"}
{"compound": "CC1COCCN1c1cc(C2(S(C)(=N)=O)CC2)nc(-c2ccnc3[nH]ccc23)n1 (stereo not drawn) + Cc1cccc(N(C)C(=O)C2C(O)CCN2c2nc(C)cc(C(F)(F)F)c2C#N)c1", "assigned_label": "inactive"}

---

Below: a set of entries, each annotated with reported pIC50.
- Test system: 282377-053-R-J1-PDC complex spheroid viability
- protocol: Anticancer human tumor 282377-053-R-J1-PDC cell line growth inhibition [POLQ];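 also: spheroids exposed to compounds for seven days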
- condition_info: curve of first compound; second compound 0.1 µM
pIC50: −log10 of the molar value.

{"compound": "CC(=O)O[C@H]1C(=O)[C@@]2(C)[C@H]([C@H](OC(=O)c3ccccc3)[C@]3(O)C[C@H](OC(=O)[C@H](O)[C@@H](NC(=O)c4ccccc4)c4ccccc4)C(C)=C1C3(C)C)[C@]1(OC(C)=O)CO[C@@H]1C[C@@H]2O + COC1C(OC(N)=O)C(O)C(Oc2ccc3c(O)c(NC(=O)c4ccc(O)c(CC=C(C)C)c4)c(=O)oc3c2C)OC1(C)C", "censoring_operator": "=", "pIC50": 7.98}
{"compound": "CC(=O)O[C@H]1C(=O)[C@@]2(C)[C@H]([C@H](OC(=O)c3ccccc3)[C@]3(O)C[C@H](OC(=O)[C@H](O)[C@@H](NC(=O)c4ccccc4)c4ccccc4)C(C)=C1C3(C)C)[C@]1(OC(C)=O)CO[C@@H]1C[C@@H]2O + Cc1cccc(N(C)C(=O)C2C(O)CCN2c2nc(C)cc(C(F)(F)F)c2C#N)c1", "censoring_operator": "=", "pIC50": 7.55}
{"compound": "CC1COCCN1c1cc(C2(S(C)(=N)=O)CC2)nc(-c2ccnc3[nH]ccc23)n1 (centres undefined) + Cc1cccc(N(C)C(=O)C2C(O)CCN2c2nc(C)cc(C(F)(F)F)c2C#N)c1", "censoring_operator": "<", "pIC50": 5.00}
{"compound": "CCc1cc2c(N3CCc4c(cc(Cn5ccnc5)cc4-c4cn(C)nc4C(F)(F)F)C3=O)ccnc2c(OC)n1 + COC1C(OC(N)=O)C(O)C(Oc2ccc3c(O)c(NC(=O)c4ccc(O)c(CC=C(C)C)c4)c(=O)oc3c2C)OC1(C)C", "censoring_operator": "<", "pIC50": 5.00}
{"compound": "CNCc1ccc(-c2[nH]c3cc(F)cc4c3c2CCNC4=O)cc1 + Nc1ccc(C#CCN(C(=O)Cc2ncc(C(F)(F)F)cc2C(F)(F)F)c2ccc(F)cc2)nn1", "censoring_operator": "<", "pIC50": 5.00}
{"compound": "COc1cccc(OCCCN)c1-c1cc(Nc2cnc(C#N)cn2)n[nH]1 + Nc1ccc(C#CCN(C(=O)Cc2ncc(C(F)(F)F)cc2C(F)(F)F)c2ccc(F)cc2)nn1", "censoring_operator": "=", "pIC50": 6.55}
{"compound": "CC[C@@]1(O)C(=O)OCc2c1cc1n(c2=O)Cc2cc3c(CN(C)C)c(O)ccc3nc2-1 + Nc1ccc(C#CCN(C(=O)Cc2ncc(C(F)(F)F)cc2C(F)(F)F)c2ccc(F)cc2)nn1", "censoring_operator": "<", "pIC50": 7.00}
{"compound": "COc1cccc2c1C(=O)c1c(O)c3c(c(O)c1C2=O)CC(O)(C(=O)CO)CC3OC1CC(N)C(O)C(C)O1 (centres undefined) + COC1C(OC(N)=O)C(O)C(Oc2ccc3c(O)c(NC(=O)c4ccc(O)c(CC=C(C)C)c4)c(=O)oc3c2C)OC1(C)C", "censoring_operator": "=", "pIC50": 6.49}
{"compound": "Nc1ccn(C2OC(CO)C(O)C2(F)F)c(=O)n1 (centres undefined) + COC1C(OC(N)=O)C(O)C(Oc2ccc3c(O)c(NC(=O)c4ccc(O)c(CC=C(C)C)c4)c(=O)oc3c2C)OC1(C)C", "censoring_operator": "=", "pIC50": 6.86}

---

- Tested on: 282377-053-R-J1-PDC complex spheroid viability
- protocol: Anticancer human tumor 282377-053-R-J1-PDC cell line growth inhibition [POLQ];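 also: spheroids exposed to compounds for seven days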
- condition_info: curve of first compound; second compound 0.1 µM
- Procedure: Multicellular complex tumor spheroid response to Polymerase (POL) inhibitors (novobiocin, ART-558, RP6685) in combination with a variety of drugs and investigational agents in selected tumor cell lines The POL inhibitors (novobiocin, ART-558, and RP6685) were evaluated both individually and in combination with standard of care and investigational anticancer small molecules within a complex spheroid model of solid tumors. . […]
pIC50: −log10 of the molar value.
readout: pIC50

{"molecule": "Nc1ccn(C2OC(CO)C(O)C2(F)F)c(=O)n1 (stereo not drawn) + Cc1cccc(N(C)C(=O)C2C(O)CCN2c2nc(C)cc(C(F)(F)F)c2C#N)c1", "assayed_system": "282377-053-R-J1-PDC complex spheroid viability", "reading": 7.02}
{"molecule": "COc1cc(C2c3cc4c(cc3C(OC3OC5COC(C)OC5C(O)C3O)C3COC(=O)C23)OCO4)cc(OC)c1O (stereo not drawn) + COC1C(OC(N)=O)C(O)C(Oc2ccc3c(O)c(NC(=O)c4ccc(O)c(CC=C(C)C)c4)c(=O)oc3c2C)OC1(C)C", "assayed_system": "282377-053-R-J1-PDC complex spheroid viability", "reading": "< 5.00"}
{"molecule": "Cn1ncnc1[C@H]1c2n[nH]c(=O)c3cc(F)cc(c23)N[C@@H]1c1ccc(F)cc1 + COC1C(OC(N)=O)C(O)C(Oc2ccc3c(O)c(NC(=O)c4ccc(O)c(CC=C(C)C)c4)c(=O)oc3c2C)OC1(C)C", "assayed_system": "282377-053-R-J1-PDC complex spheroid viability", "reading": "< 7.00"}

---

- Tested on: 282377-053-R-J1-PDC complex spheroid viability
- protocol: Anticancer human tumor 282377-053-R-J1-PDC cell line growth inhibition [POLQ];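 also: spheroids exposed to compounds for seven days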;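 as to viability, T/C: 100% = DMSO vehicle control viability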
- condition_info: second compound 10 µM; first compound 0.1 µM; stronger effect = lower value
readout: viability, T/C (%)

{"compound": "CC(C)n1c(=O)n(C)c2cnc3cc(F)c(-c4ccc(OCCCN5CCCCC5)nc4)cc3c21 + Nc1ccc(C#CCN(C(=O)Cc2ncc(C(F)(F)F)cc2C(F)(F)F)c2ccc(F)cc2)nn1", "readout": "viability, T/C", "value_unit": "%", "reading": 119}
{"compound": "CCCS(=O)(=O)Nc1ccc(F)c(C(=O)c2c[nH]c3ncc(-c4ccc(Cl)cc4)cc23)c1F + Cc1cccc(N(C)C(=O)C2C(O)CCN2c2nc(C)cc(C(F)(F)F)c2C#N)c1", "readout": "viability, T/C", "value_unit": "%", "reading": 81.2}
{"compound": "COc1cccc(OCCCN)c1-c1cc(Nc2cnc(C#N)cn2)n[nH]1 + Nc1ccc(C#CCN(C(=O)Cc2ncc(C(F)(F)F)cc2C(F)(F)F)c2ccc(F)cc2)nn1", "readout": "viability, T/C", "value_unit": "%", "reading": 66.7}
{"compound": "CCCS(=O)(=O)Nc1ccc(F)c(C(=O)c2c[nH]c3ncc(-c4ccc(Cl)cc4)cc23)c1F + COC1C(OC(N)=O)C(O)C(Oc2ccc3c(O)c(NC(=O)c4ccc(O)c(CC=C(C)C)c4)c(=O)oc3c2C)OC1(C)C", "readout": "viability, T/C", "value_unit": "%", "reading": 73.5}
{"compound": "COc1ccc([C@@H](O)c2cc(-c3ncnc4cc(N5CCOCC5)ccc34)c(F)cc2Cl)nn1 + Cc1cccc(N(C)C(=O)C2C(O)CCN2c2nc(C)cc(C(F)(F)F)c2C#N)c1", "readout": "viability, T/C", "value_unit": "%", "reading": 87.6}
{"compound": "C#Cc1c(F)ccc2cc(O)cc(-c3ncc4c(N5CC6CCC(C5)N6)nc(OCC56CCCN5CC(F)C6)nc4c3F)c12 (stereo not drawn) + Cc1cccc(N(C)C(=O)C2C(O)CCN2c2nc(C)cc(C(F)(F)F)c2C#N)c1", "readout": "viability, T/C", "value_unit": "%", "reading": 82.4}
{"compound": "CCc1c2c(nc3ccc(O)cc13)-c1cc3c(c(=O)n1C2)COC(=O)[C@]3(O)CC + Nc1ccc(C#CCN(C(=O)Cc2ncc(C(F)(F)F)cc2C(F)(F)F)c2ccc(F)cc2)nn1", "readout": "viability, T/C", "value_unit": "%", "reading": 80.3}
{"compound": "COc1cc(C2c3cc4c(cc3C(OC3OC5COC(C)OC5C(O)C3O)C3COC(=O)C23)OCO4)cc(OC)c1O (stereo not drawn) + Nc1ccc(C#CCN(C(=O)Cc2ncc(C(F)(F)F)cc2C(F)(F)F)c2ccc(F)cc2)nn1", "readout": "viability, T/C", "value_unit": "%", "reading": 122}
{"compound": "CNCc1ccc(-c2[nH]c3cc(F)cc4c3c2CCNC4=O)cc1 + Cc1cccc(N(C)C(=O)C2C(O)CCN2c2nc(C)cc(C(F)(F)F)c2C#N)c1", "readout": "viability, T/C", "value_unit": "%", "reading": 98.4}
{"compound": "COc1ccc([C@@H](O)c2cc(-c3ncnc4cc(N5CCOCC5)ccc34)c(F)cc2Cl)nn1 + COC1C(OC(N)=O)C(O)C(Oc2ccc3c(O)c(NC(=O)c4ccc(O)c(CC=C(C)C)c4)c(=O)oc3c2C)OC1(C)C", "readout": "viability, T/C", "value_unit": "%", "reading": 91.6}
{"compound": "C=CC(=O)N1CCN(c2nc(=O)n(-c3c(C)ccnc3C(C)C)c3nc(-c4c(O)cccc4F)c(F)cc23)C(C)C1 (stereo not drawn) + Cc1cccc(N(C)C(=O)C2C(O)CCN2c2nc(C)cc(C(F)(F)F)c2C#N)c1", "readout": "viability, T/C", "value_unit": "%", "reading": 80.8}
{"compound": "CCc1cc2c(N3CCc4c(cc(Cn5ccnc5)cc4-c4cn(C)nc4C(F)(F)F)C3=O)cc(C)nc2c(OC)n1 + Cc1cccc(N(C)C(=O)C2C(O)CCN2c2nc(C)cc(C(F)(F)F)c2C#N)c1", "readout": "viability, T/C", "value_unit": "%", "reading": 98.3}
{"compound": "Nc1ccn(C2OC(CO)C(O)C2(F)F)c(=O)n1 (stereo not drawn) + COC1C(OC(N)=O)C(O)C(Oc2ccc3c(O)c(NC(=O)c4ccc(O)c(CC=C(C)C)c4)c(=O)oc3c2C)OC1(C)C", "readout": "viability, T/C", "value_unit": "%", "reading": 47.2}
